Hello, the source for this data is PubChem BioAssay (NCATS), in case you need it.

experiment: Cell Viability - LYMP2-002 (AID 977);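 further: compound exposure lasted 24 h at 37 °C; plate controls were DMSO only for no effect and 92 µM tetraoctylammonium bromide for full effect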
experimentalParameters: LYMP2-002 lymphoblastoid cell viability, qHTS; series mostly up to 92.2 µM
Records with an inconclusive call do not appear. Calls of active or inactive are those of the source. The call rests on the fitted dose curve; in most records, active means well fitted cell-killing curve with a large enough effect; inconclusive means small, poorly fitted or top-dose-only effect; inactive means flat fitted curve, though single readings scatter.
Would you mind answering with one of these outcomes? True (active), False (inactive)

- entrySmiles: "O=P(O)(OCc1ccccc1)OCc1ccccc1"
  group: "False"

QUERY: Which outcome was entered for the molecule COC(=O)CCC(=O)OC in this test?
RESULT: False

QUERY: Which outcome was entered for the molecule CC(C)C(C)C in this test?
RESULT: False

* * *

targetDesc: Voltage-gated inwardly rectifying potassium channel KCNH2 (Homo sapiens)
experiment: qHTS Assay for Small Molecule Inhibitors of the Human hERG Channel Activity (AID 588834);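 further: U2OS cells transduced with hERG by BacMam; top concentration of the series differs between compounds; on the % scale 0 is the no-effect control and ±100 the full control effect; lower thallium flux fluorescence means stronger hERG block; nearly all actives have a fitted effect of over 50% in size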
experimentalParameters: U2OS BacMam hERG, FluxOR thallium flux fluorescence; series mostly up to 92.2 µM
Results filed as inconclusive are left out. Calls of active or inactive are those of the source. The call rests on the fitted dose curve; in most records, active means well fitted inhibition curve with a large enough effect; inconclusive means small, poorly fitted or top-dose-only effect; inactive means flat fitted curve, though single readings scatter.
Would you mind answering with one of these outcomes? true for active, false for inactive

- compound: "COc1cccc2sc(N)nc12"
  group: "false"

QUERY: Which outcome was entered for the compound CC(C)=CCl in this test?
RESULT: false

QUERY: Which outcome was entered for the compound CCCCOCCOCCSC#N in this test?
RESULT: false

QUERY: Which outcome was entered for the compound CC(C)(c1cc(Br)c(OCC(Br)CBr)c(Br)c1)c1cc(Br)c(OCC(Br)CBr)c(Br)c1 (stereo not given) in this test?
RESULT: false

QUERY: Which outcome was entered for the compound Nc1nc(CC(=O)O)cs1 in this test?
RESULT: false

QUERY: Which outcome was entered for the compound Cc1ccc(C)c([N+](=O)[O-])c1 in this test?
RESULT: false

* * *

experiment: qHTS assay for small molecule antagonists of peroxisome proliferator-activated receptor delta signaling (AID 588535);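 further: cells co-treated with a PPAR-delta agonist as stimulator during compound exposure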
experimentalParameters: HEK293T PPARd-UAS-bla, beta-lactamase FRET ratio, 18 h; 460 nm channel
Text: NIH Chemical Genomics Center [NCGC] U.S. Environmental Protection Agency [EPA] National Institutes of Environmental Health Sciences [NIEHS] National Toxicology Program [NTP] NCGC Assay Overview The Peroxisome proliferator-activated receptors (PPARs) are lipid-activated transcription factors of the nuclear receptor superfamily with three distinct subtypes namely PPAR alpha, PPAR delta (also called PPAR beta) and PPAR gamma. […]
Results filed as inconclusive are left out.
Give measured max response for each item. Keep answers brief.
Answers are plain numbers, in %.

- compound: "c1ccc2c(c1)Oc1ccccc1S2"
  property: "max response"
  unitAbbreviation: "%"
  numericValue: 19.7
- compound: "O=[N+]([O-])c1ccc(Cl)cc1Cl"
  property: "max response"
  unitAbbreviation: "%"
  numericValue: 2.66
- compound: "CCc1ccccc1O"
  property: "max response"
  unitAbbreviation: "%"
  numericValue: -32.1

// for each compound below, give its max response
1. Cc1cc(C)c(N)cc1C
2. ON=C1CCCCC1

RESULT:
2.74
-2.32

// for each compound below, give its max response
1. O=Nc1ccc(NO)cc1
2. N#CC1(O)CCCCC1
3. O=[N+]([O-])c1ccc(CCO)cc1
4. C/C=C1\CC2C=CC1C2 (stereo unspecified)
5. FC(F)(F)c1ccccc1Cl
6. CC(=C/C=C/C(C)=C/C=C/C=C(C)/C=C/C=C(C)/C=C/C(=O)O)/C=C/C(=O)O
7. CCCCCCCCC

RESULT:
[-72.9, 12, 19.9, -0.443, 25.6, 11.7, 3.26]

// for each compound below, give its max response
1. CCCCCCCCN
2. O=[N+]([O-])c1cccc(Cl)c1
3. CC(=O)c1ccccn1
4. Cc1ccc([N+](=O)[O-])c(N)c1
5. NC(=O)/N=N/C(N)=O

RESULT:
1: 13.3; 2: 4.21; 3: -20.6; 4: -3.65; 5: -25.3

// for each compound below, give its max response
1. COc1ccc(N)c(C)c1
2. N#CCc1ccccc1[N+](=O)[O-]
3. CCCCCCCN
4. Cc1c(N)cccc1N
5. NCCCCCCN
6. COc1ccc(OC)cc1

RESULT:
1. -12.2
2. 42
3. 31.2
4. -12.4
5. -19.3
6. -6.1

// for each compound below, give its max response
1. Cc1cccc(C)c1O
2. CC(C)(C)c1ccc(OCC2CO2)cc1 (stereo unspecified)

RESULT:
-20.4
18.6

// for each compound below, give its max response
1. CC(=O)OC(C)C
2. C=Cc1ccccc1C=C
3. C=C(C)C(=O)OC
4. CCCC=O
5. Cc1cc(C)cc(N)c1

RESULT:
1: -28.9; 2: -7.99; 3: -44.8; 4: 10.5; 5: -0.443

// for each compound below, give its max response
1. O=C1OC(=O)c2c(Cl)c(Cl)c(Cl)c(Cl)c21
2. BrC/C=C/CBr
3. CCCCCCC(=O)O

RESULT:
-11.3
20.5
-11.6

// for each compound below, give its max response
1. O=[N+]([O-])c1c(Cl)cc(Cl)cc1Cl
2. ICCc1ccccc1
3. CC(=O)Nc1ccc(C)cc1

RESULT:
1. 0.0891
2. 13.6
3. -10.7

* * *

experiment: Cellular Toxicity (caspase-3) Hek293 (AID 664);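 further: cells exposed to compound for 16 h at 37 °C before readout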
experimentalParameters: HEK293 caspase-3 activation, DMSO = 0%, 100 µM tamoxifen = 100%; at 92.2 µM (top of the series)
Description: NIH Chemical Genomics Center [NCGC] NIH Molecular Libraries Screening Centers Network [MLSCN] National Institutes of Environmental Health Sciences [NIEHS] National Toxicology Program [NTP] We have developed a 1536-well cell-based assay for quantitative high throughput screening (qHTS) against a number of cell lines to determine in vitro caspase 3/7 of small molecules. […] 8. Detection; Luminescence; Viewlux plate reader […]
Records with an inconclusive call do not appear.
property: caspase-3 activation (%)
Give bare numbers, in %.

- compound: "CCCCC(CC)COC(=O)CCCCC(=O)OCC(CC)CCCC (stereo not drawn)"
  numericValue: 0.675
- compound: "Cc1ccccc1Br"
  numericValue: -0.786
- compound: "CC(C)=C1CCC(C)CC1=O (stereo not drawn)"
  numericValue: -0.681
- compound: "c1ccc2[nH]cnc2c1"
  numericValue: -0.791
- compound: "O=Cc1ccc(Cl)cc1"
  numericValue: 2
- compound: "C=Cc1ccc(C=C)cc1"
  numericValue: 0.511
- compound: "Nc1c(Cl)cc(Cl)cc1Cl"
  numericValue: -0.377

Let's switch to this compound now.
QUERY: Please report the recorded caspase-3 activation for CCOc1ccc(NC(C)=O)cc1N .
RESULT: -1.58

* * *

experiment: MultiTox-Fluor Cytotoxicity Assay - LYMP1-001 - Dead Cells (AID 946);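 further: cells exposed to compound for 16 h; 0% = DMSO and 100% = tetraoctylammonium bromide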
experimentalParameters: LYMP1-001 lymphoblastoid cells, dead-cell protease fluorescence; series mostly up to 92.2 µM
Inconclusive results are not listed. Activity calls are given as the source filed them. Calls come from the whole dose curve; as a rule, active = well fitted cell-killing curve with a large enough effect; inconclusive = small, poorly fitted or top-dose-only effect, or effect the other way; inactive = flat fitted curve, though single readings scatter.
property: outcome

# annotated cases, reported outcome shown
- entrySmiles: "Fc1ccccc1"
  result: "inactive"
- entrySmiles: "CCCCOCCOCCSC#N"
  result: "inactive"
- entrySmiles: "C(=C/c1ccccc1)/c1ccccc1"
  result: "inactive"
- entrySmiles: "Nc1cccc(O)c1"
  result: "inactive"

// for each compound below, give its outcome
1. CC(=O)Nc1ccc(N)cc1
2. O=C1OC(=O)c2cc([N+](=O)[O-])ccc21
3. ClC/C=C/CCl
4. Cc1ccc(C(=O)O)cc1
5. O=C(O)c1cccc(Cl)c1Cl
6. CC(=O)OC(C)=O
7. O=[N+]([O-])c1c(Cl)cc(Cl)cc1Cl
8. Cc1c(C(=O)O)cccc1[N+](=O)[O-]

RESULT:
1. inactive
2. inactive
3. inactive
4. inactive
5. inactive
6. inactive
7. inactive
8. inactive

QUERY: Please report the recorded outcome for C[C@@H]1O[C@@H](O[C@@H]2[C@@H](O)[C@H](OCCc3ccc(O)c(O)c3)O[C@H](CO[C@@H]3O[C@H](CO)[C@@H](O)[C@H](O)[C@H]3O)[C@H]2OC(=O)/C=C/c2ccc(O)c(O)c2)[C@H](O)[C@H](O)[C@H]1O .
RESULT: inactive

* * *

experiment: qHTS assay for small molecule antagonists of retinoid X receptor alpha signaling (AID 588546);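 further: cells stimulated with 9-cis-retinoic acid as agonist; on the % scale 0 is the no-effect control and ±100 the full control effect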
experimentalParameters: HEK293T RXRa-UAS-bla, beta-lactamase ratio, antagonist mode; measured here: W530 green channel, cytotoxicity proxy
Results filed as inconclusive are left out.
property: max response (%)
One number for each entry, in %.

- compound: "Nc1ccc([N+](=O)[O-])c(N)c1"
  max response [%]: -1.48
- compound: "c1ccc2c(c1)Oc1ccccc1S2"
  max response [%]: -7.12

// for each compound below, give its max response
1. CC(=O)c1ccccn1
2. c1ccc2n[nH]nc2c1
3. CCN(CC)c1cccc(O)c1
4. CC(N)CN (configuration not stated)
5. CCCCC(=O)N(C)C

RESULT:
-3.87
-16.6
6.69
-2.44
-2.95
